TARGET: UniProtKB P00533
Sequence (P00533 whole entry): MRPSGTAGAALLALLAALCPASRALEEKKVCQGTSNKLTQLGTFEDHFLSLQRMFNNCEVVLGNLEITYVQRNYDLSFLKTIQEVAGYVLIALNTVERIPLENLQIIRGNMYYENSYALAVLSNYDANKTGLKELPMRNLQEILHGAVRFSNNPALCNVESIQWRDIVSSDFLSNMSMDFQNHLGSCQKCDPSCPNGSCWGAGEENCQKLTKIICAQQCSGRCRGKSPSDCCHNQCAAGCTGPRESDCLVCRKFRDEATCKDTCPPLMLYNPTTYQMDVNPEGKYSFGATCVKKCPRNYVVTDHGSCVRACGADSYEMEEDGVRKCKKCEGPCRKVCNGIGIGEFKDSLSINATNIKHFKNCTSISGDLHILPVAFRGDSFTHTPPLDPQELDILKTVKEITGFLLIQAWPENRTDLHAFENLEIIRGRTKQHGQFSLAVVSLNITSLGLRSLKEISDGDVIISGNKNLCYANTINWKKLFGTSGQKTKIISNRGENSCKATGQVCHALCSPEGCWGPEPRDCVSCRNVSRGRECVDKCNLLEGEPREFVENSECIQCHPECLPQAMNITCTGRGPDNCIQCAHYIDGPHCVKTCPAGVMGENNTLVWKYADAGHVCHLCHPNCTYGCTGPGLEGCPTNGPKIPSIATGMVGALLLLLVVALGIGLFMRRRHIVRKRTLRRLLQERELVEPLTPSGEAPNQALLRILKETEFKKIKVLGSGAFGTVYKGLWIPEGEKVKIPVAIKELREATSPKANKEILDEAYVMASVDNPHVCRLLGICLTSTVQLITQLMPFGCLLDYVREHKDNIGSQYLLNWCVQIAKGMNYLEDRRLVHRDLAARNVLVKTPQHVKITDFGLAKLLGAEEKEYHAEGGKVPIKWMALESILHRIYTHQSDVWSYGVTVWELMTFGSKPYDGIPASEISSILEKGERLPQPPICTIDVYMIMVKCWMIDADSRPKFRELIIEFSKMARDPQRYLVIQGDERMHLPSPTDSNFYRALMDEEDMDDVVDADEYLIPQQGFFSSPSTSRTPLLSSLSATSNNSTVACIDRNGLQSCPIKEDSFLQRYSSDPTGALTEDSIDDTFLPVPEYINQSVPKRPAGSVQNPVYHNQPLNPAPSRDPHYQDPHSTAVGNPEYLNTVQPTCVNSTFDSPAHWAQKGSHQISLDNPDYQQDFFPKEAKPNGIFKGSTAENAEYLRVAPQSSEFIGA
ASSAY EXPLANATION: Inhibition of EGFR (unknown origin) expressed in baculovirus system using fluorescein labeled PDGFR-tide substrate peptide preincubated for 60 mins followed by ATP addition and measured after 60 mins by IMAP assay
Please provide measured pIC50 for the entries that follow.
Answers are plain numbers, as −log10 of the molar value.

For orientation, consider the following solved cases.
| MOL | pIC50 |
| --- | --- |
| CCN1CCN(CC#CC(=O)Nc2ccc3nccc(Oc4ccc(C(=O)Nc5ccccn5)cc4)c3c2)CC1 | 7.26 |
| COc1cc2nccc(Oc3ccc(C(=O)Nc4ccccn4)cc3)c2cc1NC(=O)C#CCN1CCOCC1 | 7.62 |
| O=C(C#CCCN1CCOCC1)Nc1ccc2nccc(Oc3ccc(C(=O)Nc4ccccn4)cc3)c2c1 | 7.09 |
| O=C(C#CCO)Nc1ccc2nccc(Oc3ccc(C(=O)Nc4ccccn4)cc3)c2c1 | 8.20 |
| C=CC(=O)Nc1ccc2ncnc(Nc3ccc(C(=O)Nc4ccccn4)cc3)c2c1 | 8.42 |
| COCC#CC(=O)Nc1cc2c(Oc3ccc(C(=O)Nc4ccccn4)cc3)ccnc2cc1OC | 7.92 |
| C=CC(=O)Nc1ccc2nccc(Oc3ccc(C(=O)Nc4ccccn4)cc3)c2c1 | 6.80 |
| C=CC(=O)Nc1ccc2ncnc(Oc3ccc(C(=O)Nc4ccccn4)cc3)c2c1 | 7.96 |

Give one value of pIC50 per listed compound.
1. CN(C)C/C=C/C(=O)Nc1ccc2nccc(Oc3ccc(C(=O)Nc4ccccn4)cc3)c2c1
2. CC#CC(=O)Nc1cc2c(Oc3ccc(C(=O)Nc4ccccn4)cc3)ccnc2cc1OCCCN1CCN(C)CC1
3. C=CC(=O)Nc1ccc2nccc(Oc3ccc(C(=O)Nc4cc(CC)ccn4)cc3)c2c1
4. COCC#CC(=O)Nc1ccc2nccc(Oc3ccc(C(=O)Nc4ccccn4)cc3)c2c1
5. O=C(C#CCN1CCOCC1)Nc1ccc2nccc(Oc3ccc(C(=O)Nc4ccccn4)cc3)c2c1
6. COc1cc2nccc(Oc3ccc(C(=O)Nc4ccccn4)cc3)c2cc1NC(=O)C#CCCN1CCOCC1

Result string:
6.56
6.63
6.70
7.80
7.89
7.48

###

TARGET: Tyrosine-protein kinase BTK (Homo sapiens)
Sequence (Q06187 whole entry): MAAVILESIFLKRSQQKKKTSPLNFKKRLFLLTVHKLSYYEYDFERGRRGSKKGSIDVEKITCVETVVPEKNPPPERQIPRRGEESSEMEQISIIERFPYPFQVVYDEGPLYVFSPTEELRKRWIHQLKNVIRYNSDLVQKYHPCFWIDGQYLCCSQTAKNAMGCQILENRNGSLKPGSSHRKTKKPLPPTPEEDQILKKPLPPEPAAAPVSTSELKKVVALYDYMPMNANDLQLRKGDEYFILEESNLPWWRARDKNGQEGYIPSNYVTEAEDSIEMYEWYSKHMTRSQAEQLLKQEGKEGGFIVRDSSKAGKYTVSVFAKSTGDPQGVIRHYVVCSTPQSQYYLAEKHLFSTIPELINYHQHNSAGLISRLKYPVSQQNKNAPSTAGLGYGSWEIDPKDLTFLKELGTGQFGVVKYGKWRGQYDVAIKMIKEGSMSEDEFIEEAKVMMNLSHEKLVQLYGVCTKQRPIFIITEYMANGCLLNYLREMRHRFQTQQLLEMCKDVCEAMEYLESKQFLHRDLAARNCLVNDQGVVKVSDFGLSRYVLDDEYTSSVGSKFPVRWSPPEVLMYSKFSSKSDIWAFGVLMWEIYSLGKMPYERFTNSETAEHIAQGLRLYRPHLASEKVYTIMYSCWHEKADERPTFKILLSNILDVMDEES
ASSAY EXPLANATION: Inhibition of human recombinant full length N-terminal His6-tagged BTK expressed in baculovirus infected Sf9 cells using fluorescein labeled Blk/Lyntide substrate preincubated with enzyme for 60 mins followed by further incubation with substrate and ATP for 120 mins by IMAP assay
Label met when IC50 is strictly below 1 nM; otherwise label not met.

| MOL | TARGET | CLASS |
| --- | --- | --- |
| CC#CC(=O)Nc1cc2c(Oc3ccc(C(=O)Nc4ccccn4)cc3)ccnc2cc1OCCN1CCOCC1 | Tyrosine-protein kinase BTK (Homo sapiens) | met |
| CN(C)C/C=C/C(=O)Nc1ccc2nccc(Oc3ccc(C(=O)Nc4ccccn4)cc3)c2c1 | Tyrosine-protein kinase BTK (Homo sapiens) | not met |
| COCC#CC(=O)Nc1ccc2nccc(Oc3ccc(C(=O)Nc4ccccn4)cc3)c2c1 | Tyrosine-protein kinase BTK (Homo sapiens) | met |
| COCC#CC(=O)Nc1cc2c(Oc3ccc(C(=O)Nc4ccccn4)cc3)ccnc2cc1OC | Tyrosine-protein kinase BTK (Homo sapiens) | met |
| CC#CC(=O)Nc1cc2c(Oc3ccc(C(=O)Nc4ccccn4)cc3)ccnc2cc1OC | Tyrosine-protein kinase BTK (Homo sapiens) | not met |
| O=C(C#CCCN1CCOCC1)Nc1ccc2nccc(Oc3ccc(C(=O)Nc4ccccn4)cc3)c2c1 | Tyrosine-protein kinase BTK (Homo sapiens) | met |
| COc1cc2nccc(Oc3ccc(C(=O)Nc4ccccn4)cc3)c2cc1NC(=O)C#CCN1CCOCC1 | Tyrosine-protein kinase BTK (Homo sapiens) | met |
| O=C(C#CCO)Nc1ccc2nccc(Oc3ccc(C(=O)Nc4ccccn4)cc3)c2c1 | Tyrosine-protein kinase BTK (Homo sapiens) | met |

Query string: For this molecule, is IC50 lower than 1 nM? C=CC(=O)Nc1ccc2nccc(Oc3ccc(C(=O)Nc4ccccn4)cc3)c2c1
Result string: not met

Query string: Cool, now CC#CC(=O)Nc1ccc2nccc(Oc3ccc(C(=O)Nc4ccccn4)cc3)c2c1
Result string: not met

Query string: Cool, now C=CC(=O)Nc1ccc2nccc(Oc3ccc(C(=O)Nc4cc(CC)ccn4)cc3)c2c1
Result string: not met

Query string: Cool, now CCN1CCN(CC#CC(=O)Nc2ccc3nccc(Oc4ccc(C(=O)Nc5ccccn5)cc4)c3c2)CC1
Result string: not met

Query string: Cool, now O=C(C#CCN1CCOCC1)Nc1ccc2nccc(Oc3ccc(C(=O)Nc4ccccn4)cc3)c2c1
Result string: met

Query string: Cool, now COc1cc2nccc(Oc3ccc(C(=O)Nc4ccccn4)cc3)c2cc1NC(=O)C#CCCN1CCOCC1
Result string: not met

Query string: Cool, now CC#CC(=O)Nc1cc2c(Oc3ccc(C(=O)Nc4ccccn4)cc3)ccnc2cc1OC1CCOCC1
Result string: not met
